system: Histoplasma capsulatum (G217-B/ATCC 26032); experiment: microbe, parasite or virus in culture; format: cell-based; settings: ATCC26032
property.name: MFC (µg/mL)
One number for each entry, in µg/mL.

# record.smiles, tested.on, property.name, observed.measurement
records = [
    ("O=C(/C=C/c1ccc([N+](=O)[O-])o1)c1ccc(Br)cc1", "Histoplasma capsulatum (G217-B/ATCC 26032)", "MFC", 0.48),
    ("COc1ccc(C(=O)/C=C/c2ccc([N+](=O)[O-])o2)cc1", "Histoplasma capsulatum (G217-B/ATCC 26032)", "MFC", 15.6),
    ("O=C(NCCCc1ccccc1)c1ccc([N+](=O)[O-])o1", "Histoplasma capsulatum (G217-B/ATCC 26032)", "MFC", 1.95),
]

Kindly give each listed record's MFC.
1. O=C(/C=C/c1ccc([N+](=O)[O-])o1)c1ccc(F)cc1
2. O=C(NCCc1ccccn1)c1ccc([N+](=O)[O-])o1

1: 3.9; 2: 3.9

What value of MFC has been reported for the following compound? O=C(NCCc1c[nH]c2ccccc12)c1ccc([N+](=O)[O-])o1 0.98

----------
assay: in vitro; settings: human
property.name: log10 IC50 (log10 of the value in µg/mL)
Answers are given as log10 of IC50 in µg/mL.

# record.smiles, log10 IC50
records = [
    ("O=C(NCCc1ccccn1)c1ccc([N+](=O)[O-])o1", 2.40),
    ("O=C(/C=C/c1ccc([N+](=O)[O-])o1)c1ccc(F)cc1", 1.67),
    ("O=C(/C=C/c1ccc([N+](=O)[O-])o1)c1ccc(Cl)cc1", 2.33),
    ("O=C(/C=C/c1ccc([N+](=O)[O-])o1)c1cc(F)c(Cl)cc1Cl", 0.19),
    ("O=C(/C=C/c1ccc([N+](=O)[O-])o1)c1ccc(Cl)cc1Cl", 1.48),
]

Kindly give each listed record's log10 IC50.
1. CS(=O)(=O)c1ccc(C(=O)/C=C/c2ccc([N+](=O)[O-])o2)cc1
2. O=C(NCc1ccccn1)c1ccc([N+](=O)[O-])o1
3. COc1ccc(C(=O)/C=C/c2ccc([N+](=O)[O-])o2)cc1
4. O=C(/C=C/c1ccc([N+](=O)[O-])o1)c1ccc(-n2ccnc2)cc1
5. O=C(/C=C/c1ccc([N+](=O)[O-])o1)c1ccc(Br)cc1
6. CN(C)CCCNC(=O)c1ccc([N+](=O)[O-])o1

1: 1.06; 2: 2.13; 3: 2.36; 4: 1.43; 5: 1.80; 6: 1.19

Kindly give each listed record's log10 IC50.
1. O=C(/C=C/c1ccc([N+](=O)[O-])o1)c1ccccc1
2. O=C(NCCCn1ccnc1)c1ccc([N+](=O)[O-])o1
3. O=C(NCCc1c[nH]c2ccccc12)c1ccc([N+](=O)[O-])o1
4. O=C(/C=C/c1ccccc1)OCc1ccc([N+](=O)[O-])o1
5. CSc1ccc(C(=O)/C=C/c2ccc([N+](=O)[O-])o2)cc1

1. 0.82
2. 1.96
3. 1.85
4. 2.38
5. 0.62

What value of log10 IC50 has been reported for the following compound? O=C(NCCCc1ccccc1)c1ccc([N+](=O)[O-])o1 1.60

----------
test system: Trichophyton mentagrophytes (ATCC 11481); experiment: Susceptibility assay for dermatophytes (CLSI M38-A2, resazurin), MIC90; type: cell-based; details: Trichophyton mentagrophytes, ATCC11481, 96 h, T. mentagrophytes, 35 °C, read-out: MIC90
So basically: is MIC90 under 8 µg/mL? Then label 1. Not under? Then label 0.

Here's what some known entries look like.
# molecule, group
measured = [
    ("O=C(NCCc1c[nH]c2ccccc12)c1ccc([N+](=O)[O-])o1 [Compound 7]", "label 0"),
    ("O=C(/C=C/c1ccc([N+](=O)[O-])o1)c1ccc(Cl)cc1 [Compound 10]", "label 1"),
    ("O=C(/C=C/c1ccccc1)OCc1ccc([N+](=O)[O-])o1 [Compound 1]", "label 0"),
    ("O=C(NCCc1ccccn1)c1ccc([N+](=O)[O-])o1 [Compound 3]", "label 0"),
    ("O=C(NCCCc1ccccc1)c1ccc([N+](=O)[O-])o1 [Compound 5]", "label 0"),
]

Shifting focus to the molecule that follows.
Does this molecule meet the criterion MIC90 < 8 µg/mL? O=C(NCc1ccccn1)c1ccc([N+](=O)[O-])o1 [Compound 4] label 0

----------
test system: Histoplasma capsulatum (G217-B/ATCC 26032); assay: microbe, parasite or virus in culture; format: cell-based; details: ATCC26032, 144 h
So basically: is MIC90 under 8 µg/mL? Then yes (1). Not under? Then no (0).

Here's what some known entries look like.
# molecule, group
rows = [
    ("CN(C)CCCNC(=O)c1ccc([N+](=O)[O-])o1", "no (0)"),
    ("O=C(NCCCn1ccnc1)c1ccc([N+](=O)[O-])o1", "no (0)"),
    ("C[C@@H]1[C@H](O)[C@@H](C)/C=C/C=C/C=C/C=C/C=C/C=C/C=C/[C@H](O[C@@H]2O[C@H](C)[C@@H](O)[C@H](N)[C@@H]2O)C[C@@H]2O[C@](O)(C[C@@H](O)C[C@@H](O)[C@H](O)CC[C@@H](O)C[C@@H](O)CC(=O)O[C@H]1C)C[C@H](O)[C@H]2C(=O)O [AmB, amphotericin B, reference compound]", "yes (1)"),
    ("O=C(/C=C/c1ccc([N+](=O)[O-])o1)c1cc(F)c(Cl)cc1Cl", "no (0)"),
]

Does this molecule meet the criterion MIC90 < 8 µg/mL? O=C(/C=C/c1ccc([N+](=O)[O-])o1)c1ccccc1 no (0)

Does this molecule meet the criterion MIC90 < 8 µg/mL? O=C(NCCc1ccccn1)c1ccc([N+](=O)[O-])o1 yes (1)

----------
test system: Cryptococcus neoformans (H99/ATCC 208821); assay: Minimum fungicidal concentration (MFC); type: cell-based; settings: ATCC208821, C. neoformans
Assignment: determine reported MFC for the given compounds.
Give bare numbers, in µg/mL.

Solved cases (5 shown):
# record.smiles, tested.on, observed.measurement
data = [
    ("O=C(/C=C/c1ccc([N+](=O)[O-])o1)c1ccc(F)cc1", "Cryptococcus neoformans (H99/ATCC 208821)", 15.6),
    ("CN(C)CCCNC(=O)c1ccc([N+](=O)[O-])o1", "Cryptococcus neoformans (H99/ATCC 208821)", 250),
    ("O=C(/C=C/c1ccccc1)OCc1ccc([N+](=O)[O-])o1", "Cryptococcus neoformans (H99/ATCC 208821)", 31.2),
    ("COc1ccc(C(=O)/C=C/c2ccc([N+](=O)[O-])o2)cc1", "Cryptococcus neoformans (H99/ATCC 208821)", 125),
    ("O=C(/C=C/c1ccc([N+](=O)[O-])o1)c1ccccc1", "Cryptococcus neoformans (H99/ATCC 208821)", 31.2),
]

Kindly give each listed record's MFC.
1. O=C(NCCc1ccccn1)c1ccc([N+](=O)[O-])o1
2. O=C(NCc1ccccn1)c1ccc([N+](=O)[O-])o1
3. O=C(NCCCc1ccccc1)c1ccc([N+](=O)[O-])o1
4. O=C(/C=C/c1ccc([N+](=O)[O-])o1)c1ccc(-n2ccnc2)cc1
5. O=C(NCCc1c[nH]c2ccccc12)c1ccc([N+](=O)[O-])o1

62.5
62.5
15.6
3.9
62.5

----------
test system: Trichophyton mentagrophytes (ATCC 11481); assay: Susceptibility assay for dermatophytes (CLSI M38-A2, resazurin), MIC90; assay type: cell-based; details: Trichophyton mentagrophytes, ATCC11481, 96 h, T. mentagrophytes, 35 °C, read-out: MIC90
Assignment: determine reported MIC90 for the given compounds.
Give bare numbers, in µg/mL.

# record.smiles, property.name, unit, observed.measurement
records = [
    ("O=C(NCCCn1ccnc1)c1ccc([N+](=O)[O-])o1", "MIC90", "µg/mL", 125),
    ("O=C(/C=C/c1ccc([N+](=O)[O-])o1)c1ccc(F)cc1", "MIC90", "µg/mL", 1.95),
    ("CSc1ccc(C(=O)/C=C/c2ccc([N+](=O)[O-])o2)cc1", "MIC90", "µg/mL", 0.98),
    ("O=C(/C=C/c1ccc([N+](=O)[O-])o1)c1ccccc1", "MIC90", "µg/mL", 0.98),
]

What value of MIC90 has been reported for the following compound? O=C(/C=C/c1ccc([N+](=O)[O-])o1)c1ccc(-n2ccnc2)cc1 1.95

----------
test system: Histoplasma capsulatum (G217-B/ATCC 26032); assay: microbe, parasite or virus in culture; format: cell-based; conditions: ATCC26032
property.name: log10 MFC (log10 of the value in µg/mL)
Answers are given as log10 of MFC in µg/mL.

# record.smiles, observed.measurement
data = [
    ("CSc1ccc(C(=O)/C=C/c2ccc([N+](=O)[O-])o2)cc1", 2.10),
    ("O=C(/C=C/c1ccc([N+](=O)[O-])o1)c1ccc(-n2ccnc2)cc1", 0.89),
]

Kindly give each listed record's log10 MFC.
1. O=C(NCc1ccccn1)c1ccc([N+](=O)[O-])o1
2. O=C(/C=C/c1ccc([N+](=O)[O-])o1)c1ccc(Cl)cc1Cl
3. O=C(/C=C/c1ccc([N+](=O)[O-])o1)c1ccccc1
4. O=C(/C=C/c1ccc([N+](=O)[O-])o1)c1ccc(Cl)cc1

1: 0.59; 2: 1.80; 3: 1.19; 4: 1.19
